Test system: PI(3)P liposomes
Assay: Yeast proteome chip probed with PI(3)P liposomes
Settings: liposome binding signal on yeast proteome chip, Cy3-streptavidin detection
MEASUREMENT KIND: PI(3)P
Please reply with the number alone, leaving off any unit.

Field PI(3)P (entry GPM3: yeast phosphoglycerate mutase, GST-HisX6 fusion (protein, UniProt Q12326 1-303, looked up, GST-His6 tag, yeast phosphoglycerate mutase, GST-HisX6 fusion) Phosphoglycerate mutase 3: MTVTDTFKLFILRHGQSELNSENIFCGWIDAQLTEKGKSQARHSAKLIKQFCDSNNISLPQIGYTSRLIRTQQTMDVILEELGLKHTNYVITTNTNIKEELQDTRFEGSMPVLQTWRLNERHYGAWQGQRKPDILKEYGKEKYMYIRRDYNGKPPKVNLNLEMVQEENDQGSSTGYDFKEPNRHLKYGPEEKANERLPESESLCEVVVRLKPFLNNVVLSTANKISQESCVIVGHGSSVRSLLKVLEGISDEDIKDVDIPNGIPLVIELDRDNYSFVRKFYLDPESAKVNAQMVRDEGFEKNP ) reads 42.50

Field PI(3)P (entry FRM2: yeast GST-HisX6 fusion protein on proteome chip (protein, UniProt P37261 1-193, looked up, GST-His6 fusion tag, yeast GST-HisX6 fusion protein on proteome chip) nitroreductase FRM2: MSPTGNYLNAITNRRTIYNLKPELPQGVGLDDVKRTVHVILKNTPTAFNSQVNRAVIIVGDTHKRIWDAVASAMPTAEAKKRPESCRDEAYGSVIFFTDEGPTEKLQRDFPALAAAFPTCAAHTTGAVQIQSWTALELLGLGANLQHYNDYVKSALPQDVPIAWTVQSQLVFGVPTALPEEKTFINNVINVYH ) reads 3.50

Field PI(3)P (entry PEX4: yeast GST-HisX6 fusion protein on proteome chip (protein, UniProt P29340 1-183, looked up, GST-His6 tag, yeast GST-HisX6 fusion protein on proteome chip) Ubiquitin-conjugating enzyme …: MPNFWILENRRSYTSDTCMSRIVKEYKVILKTLASDDPIANPYRGIIESLNPIDETDLSKWEAIISGPSDTPYENHQFRILIEVPSSYPMNPPKISFMQNNILHCNVKSATGEICLNILKPEEWTPVWDLLHCVHAVWRLLREPVCDSPLDVDIGNIIRCGDMSAYQGIVKYFLAERERINNH ) reads 1.75

Field PI(3)P (entry APS2: yeast GST-HisX6 fusion protein on proteome chip (protein, UniProt Q00381 1-147, looked up, GST-HisX6 tag, yeast GST-HisX6 fusion protein on proteome chip) AP-2 complex subunit sigma: MAVQFILCFNKQGVVRLVRWFDVHSSDPQRSQDAIAQIYRLISSRDHKHQSNFVEFSDSTKLIYRRYAGLYFVMGVDLLDDEPIYLCHIHLFVEVLDAFFGNVCELDIVFNFYKVYMIMDEMFIGGEIQEISKDMLLERLSILDRLD ) reads 39.50

Field PI(3)P (entry PAU5: yeast GST-HisX6 fusion protein on proteome chip (protein, UniProt P43575 1-122, looked up, GST-His6 fusion tag, yeast GST-HisX6 fusion protein on proteome chip) Seripauperin-5: MVKLTSIAAGVAAIAAGASAAATTTLSQSDERVNLVELGVYVSDIRAHLAEYYSFQAAHPTETYPVEIAEAVFNYGDFTTMLTGIPADQVTRVITGVPWYSSRLKPAISSALSADGIYTIAN ) reads −3.00
